- assay_details: VP16 transactivation inhibitors, counter-screen for SRC1 inhibitor project, cell-based, luminescence, high throughput (AID 588824)
- measurement_setup: cell-based VP16 transactivation luciferase luminescence; at 3.6 µM; hits give high values
Binary classification by inhibition, with 30% as an inclusive lower bound for Condition met; all other cases are Condition not met.

> print(dat)
                      smiles.representation              class
1  O=C1c2cccc(NCCCNCCO)c2C(=O)c2cccc(NCCCNCCO)c21  Condition not met

-- ask Answer whether inhibition of `NNC(=O)C(=O)Nc1ccc(O)cc1` is greater than or equal to 30%.
-- reply Condition not met

-- ask Reported inhibition at or above 30%? `Cc1ccc(Sc2c(C=O)c3ccccc3n2C)cc1`
-- reply Condition met

-- ask In plain terms: is recorded inhibition at least 30% for `Nc1ccc(Oc2ccccc2-c2ccccc2)cc1` ?
-- reply Condition not met

---

- assay_details: VP16 transactivation inhibitors, counter-screen for SRC1 inhibitor project, cell-based, luminescence, high throughput (AID 588824)
- measurement_setup: cell-based VP16 transactivation luciferase luminescence; at 3.6 µM
Active and inactive are the calls of the source. No stated cut-off is given here; in the data, active means inhibition above about 25%; inactive means the rest.
Would you mind answering with one of these outcomes? True for active, False for inactive

See these solved cases before continuing.
> print(dat)
                                   compound  class
1  COc1ccc(C)cc1S(=O)(=O)N1CCCC(N2CCN(c3ccccc3)CC2)C1 (stereo unspecified)  False
2  O=C(CSc1nc(-c2cccs2)cc(C(F)(F)F)n1)Nc1cc(OCC(F)(F)C(F)F)cc([N+](=O)[O-])c1  False
3      Cc1[nH]nc2ncc(C(=O)c3cc(F)ccc3O)cc12  False
4  CCN(CC)CC(C)(C)C(=O)/C=C/c1ccc(/C=C/C(=O)C(C)(C)CN(CC)CC)cc1   True

-- ask I would be grateful if you could indicate the recorded call for `CCC(=O)Nc1cccc(C(=O)/C=C/c2cc(Br)ccc2OC)c1` .
-- reply True

-- ask Which outcome was entered for the compound `CCOC(=O)c1cc2sccc2n1CC(=O)N1CCc2ccccc21` in this test?
-- reply True

-- ask Recorded test outcome, item `COc1ccc(-c2c[n+]3c(n2-c2ccc(C)cc2)CCCCC3)cc1`
-- reply True

-- ask Record request — test call for `Cc1ccc(-n2ccc(-c3nn(-c4ccccc4)ccc3=O)n2)cc1`
-- reply False

-- ask So what was the verdict on `CCOC(=O)c1ccc2c(c1)n(CC)c(/C=C/N(C)c1ccccc1)[n+]2CC` in this test?
-- reply True

---

- Tested on: transactivating tegument protein VP16 (Human herpesvirus 1), Gal4-VP16 luciferase reporter
- assay_details: VP16 transactivation inhibitors, counter-screen for SRC3 inhibitor project, cell-based, luminescence, high throughput (AID 588794)
- measurement_setup: mammalian cells, VP16-driven luciferase reporter luminescence; at 3.6 µM; hits give high values
Everything with inhibition lower than 70% is condition not met; everything else, including exactly 70%, is condition met.

> print(dat)
                                   compound              class
1          CCCCCCCn1c2c(c(=N)c3c1CCC3)CCCC2      condition met
2  CCCCCc1ccc(OCCCC[n+]2cccc(C)c2)c(CCCCC)c1  condition not met
3  CC(C)CN=C(NS(=O)(=O)c1ccccc1)C(Cl)(Cl)Cl  condition not met
4  COc1ccc(OC)c2nc3c(C(=O)NCCN(C)C)cccc3nc12  condition not met
5  CN(C)c1ccc(C=c2c3ccccc3n3c2cc(-c2ccccc2)[n+]3C)cc1      condition met

Please find the next compound below.
-- ask Could you tell me if the measured inhibition of `Cc1cc(C)c(S(=O)(=O)/N=C2\C=C(Nc3ccc(C(=O)O)cc3)C(=O)c3ccccc32)c(C)c1` reaches 70% or more?
-- reply condition not met

---

- assay_details: VP16 transactivation inhibitors, counter-screen for SRC1 inhibitor project, cell-based, luminescence, high throughput (AID 588824)
- measurement_setup: cell-based VP16 transactivation luciferase luminescence; at 3.6 µM; hits give high values
The source made the active and inactive calls. No stated cut-off is given here; in the data, active means inhibition above about 25%; inactive means the rest.
test_readout: inhibition

Study these solved cases before continuing.
compound	inhibition
CN(Cc1c(C(=O)N/N=C/c2ccccc2O)nnn1-c1nonc1N)C1CCCCC1	59.8% (active)
Cc1cc(C(=O)COC(=O)c2ccccc2O)c(C)n1CC1CCCO1 (centres undefined)	76.8% (active)
COc1ccc(S(=O)(=O)Nc2ccccc2C(=O)N2CCCC2)cc1OC	-1.42% (inactive)

-- ask Need inhibition of `COCCNc1nc(Oc2cncc(Cl)c2)c2sccc2n1` , thanks.
-- reply 32.8% (active)

-- ask I would be grateful if you could share the reported inhibition for `Cc1cn(Cc2ccccc2Cn2cc(C)c(=O)[nH]c2=O)c(=O)[nH]c1=O` .
-- reply -5.61% (inactive)

-- ask Please give the measured inhibition for this compound: `CCCOc1ccc(/C=N/Nc2ccccc2[N+](=O)[O-])c(O)c1`
-- reply -39.9% (inactive)

-- ask For the compound CC(NNC(=S)N1CCN(c2ccccn2)CC1)c1nccc2ccccc12 (centres undefined) , what inhibition is on record?
-- reply 59.5% (active)

-- ask // returns reported inhibition for input `O=C1NC(=S)N/C1=C\c1cccnc1`
-- reply 33.3% (active)

-- ask Looking for the measured inhibition of `Cc1cc(/C=N/n2cnnc2)c(C)n1-c1ccc(OCc2ccc(Cl)cc2Cl)cc1` , can you help?
-- reply 37.6% (active)

-- ask Record request: inhibition value, item CC(Oc1ccccc1)C(=O)N1CCC2(CC1)CC(=O)c1ccccc1O2 (centres undefined)
-- reply 3.37% (inactive)

-- ask Quick one: inhibition for `CCCCCCn1nc(C(=O)OCC(=O)c2c(N)n(C)c(=O)n(C)c2=O)c2ccccc2c1=O` ?
-- reply -3.36% (inactive)

---

In this section, each of the molecules is paired with its reported inhibition.
- assay_details: VP16 transactivation reporter inhibitors, counter-screen for LRH-1 inverse agonist project, cell-based, luminescence, high throughput (AID 651615)
- measurement_setup: Gal4-VP16 luciferase reporter cells, at 3.6 µM, hits give high values
Kindly answer with a numeric value in %, unit omitted.

// known answers, use as guide
> print(dat)
                      smiles.representation  test.readout  endpoint.result
1  Cc1ccc(S(=O)(=O)/N=C2\C=C(Nc3ccc(O)cc3)C(=O)c3ccccc32)cc1    inhibition               96
2  Cc1cc(C)c2sc(NNC(=O)c3ccc(S(=O)(=O)N4CCc5ccccc5C4)cc3)nc2c1    inhibition             66.6
3  COc1cc2c(=O)[nH]c3cc([N+](=O)[O-])ccc3c2cc1[N+](=O)[O-]    inhibition            -22.2

-- ask What value of measured inhibition is listed for `Cc1onc(NC(=O)c2ccc([N+](=O)[O-])o2)c1Br` ?
-- reply -9.49

---

- target_of_assay: Nuclear receptor subfamily 5 group A member 2 (Homo sapiens)
- assay_details: LRH-1 (NR5A2) inverse agonists, retest, confirmation, cell-based, luminescence (AID 651613);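 note: HEK293T cells co-transfected with LRH-1 and StAR promoter luciferase reporter; 0% = vehicle wells and 100% = parental cells lacking receptor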
- measurement_setup: cell-based LRH-1 luciferase reporter, inverse agonism; at 3.6 µM; hits give high values
test_readout: inhibition (%)
API: value field is a number in %; no unit string.

> print(dat)
                      smiles.representation  test.readout  endpoint.result
1  C=CCOc1ccccc1CN(C(=O)CCl)c1ccc2c(c1)OCO2    inhibition             68.8
2              O=C(CCl)Nc1ccc(N2CCCCCC2)cc1    inhibition             54.6
3  O=C(CSc1n[nH]c(-c2ccccn2)n1)Nc1ccc(Cl)cc1    inhibition               70

Moving on to another compound below.
-- ask Name the reported inhibition value associated with the compound `CN(C)c1ccc(S(=O)(=O)N2CCCCC2)cc1NC(=O)CCNC(=O)c1ccc(Cl)cc1`
-- reply 3.72

---

- assay_details: STAT1 reporter inhibitors, IFN-gamma induced, confirmation, counter-screen for STAT3 inhibitor project, cell-based, NIH 3T3, luciferase luminescence (AID 1317);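 note: 0% = DMSO with IFN-gamma and 100% = nifuroxazide control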
- measurement_setup: NIH 3T3 STAT1-luciferase reporter, at 5.7 µM
This is one part of the list. Active and inactive are the calls of the source.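 The calls were made as follows: active = inhibition above the mean plus 3 SD of solvent-only control wells, limit set per screening run (cut at about 16% in these data); inactive = the rest.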
Outcome field: choose from active, inactive

Below, 3 compounds whose answers are already recorded.
> print(dat)
                                   compound     class
1  CN(Cc1cccnc1)C(=O)c1cc(COc2ccc3ncccc3c2)on1    active
2  Cc1cc(NC(=O)c2cc(-c3cccs3)on2)nn1Cc1ccc(Cl)cc1  inactive
3         CCCCOc1ccc(-c2nnc(-c3ccco3)o2)cc1  inactive

-- ask Outcome logged for `CN(C)S(=O)(=O)c1ccc(NC(=O)COC(=O)c2n[nH]c3ccccc23)cc1` in this assay:
-- reply inactive

-- ask # outcome recorded in this test, key = `CCCc1ccc(-c2csc(NC(=O)Cc3cccs3)n2)cc1`
-- reply inactive

-- ask What is the recorded call for this compound in the test? `CCN(CC)c1ccc(/C=N/Nc2nc(C)cc(=O)[nH]2)cc1`
-- reply inactive

-- ask Entry `CCN1/C(=C\c2ccc3ccccc3[n+]2CC)Sc2cc(C)ccc21` : call = ?
-- reply active

-- ask Can you look up the reported call for `O=C(Nc1ccc(Cl)cn1)c1ccc2c(c1)OCCO2` for me?
-- reply inactive

-- ask Kindly provide the recorded test outcome for the following compound: O=C1NC(Nc2nc3ccccc3s2)(C(F)(F)F)C(=O)N1C1CCCCC1 (configuration not stated)
-- reply inactive

-- ask Per the assay record, what outcome was assigned to `Cc1ccc2cc3cc(C(=O)N4CCCCCC4)oc3nc2c1` ?
-- reply inactive

-- ask GET /call?item= `CCc1ccc2oc(-c3ccc(N)cc3)nc2c1` returns the recorded outcome of this test.
-- reply inactive

These measurements were taken from PubChem BioAssay.
